Values from patent US11685732B2

Catalogue of pIC50 readings, one per entry.
- target-entity: KAT-6A (Homo sapiens (Human), UniProt Q92794)
- Sequence (Q92794 other isoform, or with tags, fused parts or gaps): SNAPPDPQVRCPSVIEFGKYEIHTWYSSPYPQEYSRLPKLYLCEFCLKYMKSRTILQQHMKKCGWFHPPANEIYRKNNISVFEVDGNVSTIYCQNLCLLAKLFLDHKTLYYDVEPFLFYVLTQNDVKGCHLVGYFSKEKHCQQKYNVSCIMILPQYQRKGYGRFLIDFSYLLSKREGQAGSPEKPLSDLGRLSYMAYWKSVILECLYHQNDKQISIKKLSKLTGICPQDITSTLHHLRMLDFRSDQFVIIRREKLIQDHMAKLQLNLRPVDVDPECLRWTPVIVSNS
- measurement-description: KAT-6A biochemical inhibition assay (SAMDI mass spectrometry)
pIC50: −log10 of the molar value.

Would you please look over these solved cases?
CN(C(=O)OC(C)(C)C)C1CC(CS(=O)(=O)NNC(=O)c2cc(-c3cn(C)cn3)cc(Cl)c2F)C1 (stereo not drawn) [Compound I-390]; 4.30 to 5.00
Cn1cnc(-c2cc(Cl)c(F)c(C(=O)NNS(=O)(=O)Cc3ccnn3C)c2)c1 [Compound I-480]; 4.30 to 5.00
Cn1cnc(-c2cc(C(=O)NNS(=O)(=O)CC3CCCCC3)c(F)c(Cl)c2N)c1 [Compound I-476]; > 5.00
Cn1cnc(-c2cc(Cl)c(F)c(C(=O)NNS(=O)(=O)c3nccs3)c2)c1 [Compound I-227]; > 5.00
Cn1cnc(-c2cc(Cl)c(F)c(C(=O)NNS(=O)(=O)CC3CCCC(F)(F)C3)c2)c1 (stereo not drawn) [Compound I-342]; > 5.00

Observed pIC50 on KAT-6A (Homo sapiens (Human), UniProt Q92794), entry Cn1cnc(-c2cc(Cl)c(F)c(C(=O)NNS(=O)(=O)CC3CCCC(NC(=O)Cc4cccnc4)C3)c2)c1 (stereo not drawn) [Compound I-243] , equals > 5.00

====

Catalogue of IC50 readings, one per entry.
- target-entity: KAT-7 (Homo sapiens (Human), UniProt O95251)
- Sequence (O95251 other isoform, or with tags, fused parts or gaps): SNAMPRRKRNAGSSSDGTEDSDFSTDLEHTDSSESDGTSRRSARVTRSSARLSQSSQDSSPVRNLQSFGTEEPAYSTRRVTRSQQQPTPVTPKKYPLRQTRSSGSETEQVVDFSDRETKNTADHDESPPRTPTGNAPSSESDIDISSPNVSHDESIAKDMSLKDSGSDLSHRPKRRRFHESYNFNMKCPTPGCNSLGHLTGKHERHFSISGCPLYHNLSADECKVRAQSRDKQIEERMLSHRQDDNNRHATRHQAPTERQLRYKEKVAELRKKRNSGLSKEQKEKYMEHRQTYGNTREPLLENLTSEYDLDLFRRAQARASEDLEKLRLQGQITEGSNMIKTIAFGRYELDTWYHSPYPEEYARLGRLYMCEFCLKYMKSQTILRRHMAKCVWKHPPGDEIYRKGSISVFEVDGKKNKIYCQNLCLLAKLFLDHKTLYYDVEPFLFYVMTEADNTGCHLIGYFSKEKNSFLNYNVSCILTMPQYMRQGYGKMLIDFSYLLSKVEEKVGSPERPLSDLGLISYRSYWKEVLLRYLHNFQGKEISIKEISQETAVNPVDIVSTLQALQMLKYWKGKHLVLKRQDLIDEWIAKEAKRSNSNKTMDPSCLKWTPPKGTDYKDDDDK
- measurement-description: KAT-7 biochemical inhibition assay (SAMDI mass spectrometry)

Would you please look over these solved cases?
CCCn1cc(-c2cc(C)c(F)c(C(=O)NNS(=O)(=O)C3CCCCC3)c2)cn1; 10 to 50 µM
CC(C1CCCCC1)S(=O)(=O)NNC(=O)c1cc(-c2cn(C)cn2)cc(Cl)c1F (stereo not drawn); < 10 µM
Cn1ccc(-c2cc(Cl)c(F)c(C(=O)NNS(=O)(=O)CC3CCCCC3)c2)n1; < 10 µM
Cn1cnc(-c2cc(Cl)c(F)c(C(=O)NNS(=O)(=O)CC3CN(S(C)(=O)=O)C3)c2)c1; < 10 µM

Data point: "O=C(NNS(=O)(=O)CC1CCOCC1)c1cc(-n2cncn2)cc(Cl)c1F" ; IC50 = 10 to 50 µM

Data point: "Cn1cnc(-c2cc(Cl)c(F)c(C(=O)NNS(=O)(=O)C[C@H]3CCC[C@H](OCc4ccccc4)C3)c2)c1" ; IC50 = < 10 µM

Data point: CCNC(=O)N1CCC(CS(=O)(=O)NNC(=O)c2cc(-c3cn(C)cn3)cc(Cl)c2F)C1 (stereo not drawn) [Compound I-88] ; IC50 = < 10 µM

Data point: COc1ccc(CNC(=O)N2CCC(CS(=O)(=O)NNC(=O)c3cc(-c4cn(C)cn4)cc(Cl)c3F)C2)cc1 (stereo not drawn) ; IC50 = < 10 µM

====

- target-entity: KAT-5 (Homo sapiens (Human), UniProt Q92993)
- Sequence (Q92993 other isoform, or with tags, fused parts or gaps): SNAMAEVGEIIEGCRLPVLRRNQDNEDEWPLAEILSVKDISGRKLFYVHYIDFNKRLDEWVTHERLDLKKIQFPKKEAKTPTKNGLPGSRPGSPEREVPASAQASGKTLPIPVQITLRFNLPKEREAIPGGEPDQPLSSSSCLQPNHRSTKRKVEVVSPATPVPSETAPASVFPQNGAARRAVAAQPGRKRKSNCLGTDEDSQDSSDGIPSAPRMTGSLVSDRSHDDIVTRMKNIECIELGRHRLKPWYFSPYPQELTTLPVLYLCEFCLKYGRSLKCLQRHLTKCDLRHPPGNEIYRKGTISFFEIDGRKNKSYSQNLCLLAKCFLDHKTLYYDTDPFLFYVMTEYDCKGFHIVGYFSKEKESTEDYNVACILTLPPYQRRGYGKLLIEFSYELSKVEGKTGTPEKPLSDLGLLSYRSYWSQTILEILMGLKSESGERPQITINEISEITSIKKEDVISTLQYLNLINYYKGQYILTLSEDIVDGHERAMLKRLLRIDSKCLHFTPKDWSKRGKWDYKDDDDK
- measurement-description: KAT-5 biochemical inhibition assay (SAMDI mass spectrometry)
pIC50: −log10 of the molar value.
Catalogue of pIC50 readings, one per entry.

Would you please look over these solved cases?
Cn1cnc(-c2cc(Cl)c(F)c(C(=O)NNS(=O)(=O)c3nccs3)c2)c1; > 5.00
Cn1cnc(-c2cc(Cl)c(F)c(C(=O)NNS(=O)(=O)C[C@H]3CC[C@H]4CC[C@@H]3N4C(=O)OC(C)(C)C)c2)c1; > 5.00

Now consider the entry below.
Data point: "Cn1cnc(-c2cc(Cl)c(F)c(C(=O)NNS(=O)(=O)c3cnn(C)n3)c2)c1" ; pIC50 = 4.30 to 5.00

====

- target-entity: KAT-6A (Homo sapiens (Human))
- measurement-description: KAT-6A biochemical inhibition assay (SAMDI mass spectrometry)
pIC50: −log10 of the molar value.
Catalogue of pIC50 readings, one per entry.

Would you please look over these solved cases?
CCNC(=O)N(C)C1CC(CS(=O)(=O)NNC(=O)c2cc(-c3cn(C)cn3)cc(Cl)c2F)C1 (stereo not shown); > 5.00
Cn1cnc(-c2cc(Cl)c(F)c(C(=O)NNS(=O)(=O)CC3CCC4CCC3N4)c2)c1 (stereo not shown); 4.30 to 5.00
Cn1cnc(-c2cc(Cl)c(F)c(C(=O)NNS(=O)(=O)C[C@H]3CCC[C@@H](O)C3)c2)c1; > 5.00
Cn1cnc(-c2cc(Cl)c(F)c(C(=O)NNS(=O)(=O)CC3CCOCC3)c2)c1; > 5.00
Cn1cnc(-c2cc(Cl)c(F)c(C(=O)NNS(=O)(=O)CC3CCN(S(C)(=O)=O)C3)c2)c1 (stereo not shown); > 5.00

Observed pIC50 on KAT-6A (Homo sapiens (Human)), entry Cn1cnc(-c2cc(Cl)c(F)c(C(=O)NNS(=O)(=O)CC3CCCN(S(C)(=O)=O)C3)c2)c1 (stereo not shown) , equals > 5.00

Observed pIC50 on KAT-6A (Homo sapiens (Human)), entry "Cn1cnc(-c2cc(Cl)c(F)c(C(=O)NNS(=O)(=O)c3cnn(CCO)c3)c2)c1" , equals 4.30 to 5.00

====

Catalogue of pIC50 readings, one per entry.
- target-entity: KAT-6A (Homo sapiens (Human), UniProt Q92794)
- measurement-description: KAT-6A biochemical inhibition assay (SAMDI mass spectrometry)
pIC50: −log10 of the molar value.

Would you please look over these solved cases?
Cn1cnc(-c2cc(Cl)c(F)c(C(=O)NNS(=O)(=O)c3nccn3C)c2)c1; > 5.00
Cn1cnc(-c2cc(Cl)c(F)c(C(=O)NNS(=O)(=O)CC3CCC(OCCO)CC3)c2)c1 (stereo not drawn); > 5.00

Now consider the entry below.
Observed pIC50 on KAT-6A (Homo sapiens (Human), UniProt Q92794), entry CC([C@H]1CC[C@H](NC(=O)OC(C)(C)C)CC1)S(=O)(=O)NNC(=O)c1cc(-c2cn(C)cn2)cc(Cl)c1F (stereo partly drawn) , equals > 5.00

====

- target-entity: KAT-5 (Homo sapiens (Human), UniProt Q92993)
- measurement-description: KAT-5 biochemical inhibition assay (SAMDI mass spectrometry)
- Experimental: KAT-5. Enzyme assay buffer was 50 mM Tris pH 8.0, 0.002% Tween20, 0.005% bovine skin gelatin, and 1 mM dithiothreitol (DTT). For determination of IC50 values, compounds were serially diluted with 2% (v/v) DMSO in the final reaction, pre-incubating each dilution of each compound with 40 μL of assay buffer containing KAT-5 enzyme (9 nM final concentration). 10 μL of assay buffer containing 1 μM peptide substrate and 0.5 μM acetyl coenzyme A (final concentrations) was added. […]
readout: IC50

CCNC(=O)N1CCC(CS(=O)(=O)NNC(=O)c2cc(-c3cn(C)cn3)cc(Cl)c2F)C1 (stereo not shown) [Compound I-64]; < 10 µM
Cn1cnc(-c2cc(Cl)c(F)c(C(=O)NNS(=O)(=O)CC34CCC(CC3)CC4)c2)c1 [Compound I-334]; < 10 µM

Data point: Cc1cc(-c2cnn(C(C)C)c2)cc(C(=O)NNS(=O)(=O)C2CCCCC2)c1F [Compound I-155] ; IC50 = > 100 µM

Data point: CC(=O)Nc1ccc(S(=O)(=O)NNC(=O)c2cc(-c3cn(C)cn3)cc(Cl)c2F)cc1 [Compound I-379] ; IC50 = 10 to 50 µM

Data point: Cc1cc(-c2cnn(C)c2)cc(C(=O)NNS(=O)(=O)C2CCCCC2)c1F [Compound I-156] ; IC50 = 10 to 50 µM

Data point: Cn1cnc(-c2cc(Cl)c(F)c(C(=O)NNS(=O)(=O)CC3CN(C(=O)OC(C)(C)C)C3)c2)c1 [Compound I-95] ; IC50 = 10 to 50 µM

Data point: Cc1cc(-c2cn(C)cn2)cc(C(=O)NNS(=O)(=O)CC2CCCCC2)c1F [Compound I-129] ; IC50 = < 10 µM

Data point: Cn1cnc(-c2cc(Cl)c(F)c(C(=O)NNS(=O)(=O)C[C@H]3CC[C@H](NC(=O)c4ccccn4)CC3)c2)c1 [Compound I-245] ; IC50 = < 10 µM

====

- target-entity: KAT-8 (Homo sapiens (Human))
- Sequence (Q9H7Z6 other isoform, or with tags, fused parts or gaps): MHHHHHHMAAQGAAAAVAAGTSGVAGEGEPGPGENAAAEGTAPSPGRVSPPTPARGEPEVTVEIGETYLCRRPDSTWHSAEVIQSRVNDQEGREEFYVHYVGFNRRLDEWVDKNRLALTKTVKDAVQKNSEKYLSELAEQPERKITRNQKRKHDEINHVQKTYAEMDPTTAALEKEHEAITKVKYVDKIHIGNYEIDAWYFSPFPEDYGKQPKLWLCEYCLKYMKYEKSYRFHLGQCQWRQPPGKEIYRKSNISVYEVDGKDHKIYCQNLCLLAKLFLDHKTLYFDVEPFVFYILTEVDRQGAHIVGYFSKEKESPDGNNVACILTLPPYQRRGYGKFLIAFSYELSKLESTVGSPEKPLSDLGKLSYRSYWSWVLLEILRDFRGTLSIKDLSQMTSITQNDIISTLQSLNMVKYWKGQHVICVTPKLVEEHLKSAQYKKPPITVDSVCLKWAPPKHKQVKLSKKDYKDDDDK
- measurement-description: KAT-8 biochemical inhibition assay (SAMDI mass spectrometry)
pIC50: −log10 of the molar value.
readout: pIC50

Would you please look over these solved cases?
Cn1ccc(-c2cc(Cl)c(F)c(C(=O)NNS(=O)(=O)CC3CCCCC3)c2)n1; 4.00 to 4.30
CC1CCN(C(=O)OC(C)(C)C)CC1CS(=O)(=O)NNC(=O)c1cc(-c2cn(C)cn2)cc(Cl)c1F (stereo not drawn); 4.30 to 5.00
Cc1cc(-c2cn(C)c(Cl)n2)cc(C(=O)NNS(=O)(=O)CC2CCCCC2)c1C; < 4.00
Cn1cnc(-c2cc(Cl)c(F)c(C(=O)NNS(=O)(=O)CC3CCCC(N)C3)c2)c1 (stereo not drawn); 4.30 to 5.00
Cn1cnc(-c2cc(Cl)c(F)c(C(=O)NNS(=O)(=O)CC3CCc4ccccc4C3)c2)c1 (stereo not drawn); 4.30 to 5.00
Cn1cnc(-c2cc(Cl)c(F)c(C(=O)NNS(=O)(=O)C[C@H]3CC[C@H](NC(=O)Cc4ccccn4)CC3)c2)c1; 4.30 to 5.00
Cn1cnc(-c2cc(Cl)c(F)c(C(=O)NNS(=O)(=O)C[C@H]3CC[C@H](NC(=O)c4cccnc4)CC3)c2)c1; 4.30 to 5.00
Cn1cnc(-c2cc(Cl)c(F)c(C(=O)NNS(=O)(=O)CC(=O)N3CCCC3)c2)c1; 4.30 to 5.00
Cn1cnc(-c2cc(Cl)c(F)c(C(=O)NNS(=O)(=O)C3CCC3)c2)c1; < 4.00
CCO[C@H]1CCC[C@H](CS(=O)(=O)NNC(=O)c2cc(-c3cn(C)cn3)cc(Cl)c2F)C1; 4.30 to 5.00

Data point: "COCCn1cnc(-c2cc(C)c(F)c(C(=O)NNS(=O)(=O)C3CCCCC3)c2)c1" ; pIC50 = < 4.00

Data point: "Cn1cnc(-c2cc(Cl)c(F)c(C(=O)NNS(=O)(=O)C[C@H]3CC[C@H](N)CC3)c2)c1" ; pIC50 = 4.30 to 5.00
